All values here come from patent US11040981B2.

Reported pIC50 for target or system FLT3 (Homo sapiens), by entry.
pIC50: −log10 of the molar value.

compound	pIC50
COC[C@H](C)Nc1ncc2c(-c3cnn(C(C)(C)C(=O)N4CCOCC4)c3)cc([C@H]3CC[C@H](O)CC3)n2n1 [Compound 282]	6.00 to 7.00

Consider the record given below.
get_value(item= CCCCC[C@H](C)Nc1ncc2c(-c3ccc(CN4CCN(C)CC4)cc3)cc([C@H]3CC[C@@H](O)CC3)n2n1 [Compound 105] , readout=pIC50) returns 6.00 to 7.00

###

Below, each entry is listed alongside its reported pIC50.
target-system: TYRO3 (Homo sapiens)
Sequence (Q06418 41-890): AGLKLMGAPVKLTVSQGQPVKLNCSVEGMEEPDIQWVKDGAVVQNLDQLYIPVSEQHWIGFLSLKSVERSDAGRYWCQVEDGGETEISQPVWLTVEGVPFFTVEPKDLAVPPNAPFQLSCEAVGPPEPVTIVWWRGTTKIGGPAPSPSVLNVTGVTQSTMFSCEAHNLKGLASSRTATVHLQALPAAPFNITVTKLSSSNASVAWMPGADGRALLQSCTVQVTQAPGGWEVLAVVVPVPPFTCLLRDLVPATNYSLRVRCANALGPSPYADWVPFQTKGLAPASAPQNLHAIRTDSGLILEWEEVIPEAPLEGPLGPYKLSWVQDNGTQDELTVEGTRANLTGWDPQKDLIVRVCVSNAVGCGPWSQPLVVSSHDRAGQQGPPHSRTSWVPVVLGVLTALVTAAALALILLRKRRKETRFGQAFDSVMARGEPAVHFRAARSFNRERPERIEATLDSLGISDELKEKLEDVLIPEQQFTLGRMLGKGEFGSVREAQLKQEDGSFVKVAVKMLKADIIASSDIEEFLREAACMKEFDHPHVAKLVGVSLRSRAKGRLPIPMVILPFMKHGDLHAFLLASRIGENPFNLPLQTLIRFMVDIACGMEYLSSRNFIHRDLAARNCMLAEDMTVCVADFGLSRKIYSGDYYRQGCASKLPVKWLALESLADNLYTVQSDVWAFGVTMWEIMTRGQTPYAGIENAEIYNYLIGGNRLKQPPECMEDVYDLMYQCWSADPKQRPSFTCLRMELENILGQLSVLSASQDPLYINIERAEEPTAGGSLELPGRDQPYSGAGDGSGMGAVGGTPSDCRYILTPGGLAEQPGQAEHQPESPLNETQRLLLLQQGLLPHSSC
protocol-description: TR-FRET kinase activity assay, TYRO3
Type: biochemical
protocol-conditions: ATP at Km, 60 minutes
pIC50: −log10 of the molar value.

Measured pIC50 of COC[C@H](C)Nc1ncc2c(C3=CC4CCC(C3)N4)cc([C@H]3CC[C@H](O)CC3)n2n1 (stereo partly drawn) : ≥ 7.00

Input `COC[C@H](C)Nc1ncc2c(-c3ccnc(N4CCN(S(=O)(=O)C(F)(F)F)CC4)c3)cc([C@H]3CC[C@H](O)CC3)n2n1` . Output pIC50: ≥ 7.00
